Biological target: Dual specificity protein kinase CLK2 (Homo sapiens) (UniProt P49760)
Sequence (P49760 whole entry, looked up): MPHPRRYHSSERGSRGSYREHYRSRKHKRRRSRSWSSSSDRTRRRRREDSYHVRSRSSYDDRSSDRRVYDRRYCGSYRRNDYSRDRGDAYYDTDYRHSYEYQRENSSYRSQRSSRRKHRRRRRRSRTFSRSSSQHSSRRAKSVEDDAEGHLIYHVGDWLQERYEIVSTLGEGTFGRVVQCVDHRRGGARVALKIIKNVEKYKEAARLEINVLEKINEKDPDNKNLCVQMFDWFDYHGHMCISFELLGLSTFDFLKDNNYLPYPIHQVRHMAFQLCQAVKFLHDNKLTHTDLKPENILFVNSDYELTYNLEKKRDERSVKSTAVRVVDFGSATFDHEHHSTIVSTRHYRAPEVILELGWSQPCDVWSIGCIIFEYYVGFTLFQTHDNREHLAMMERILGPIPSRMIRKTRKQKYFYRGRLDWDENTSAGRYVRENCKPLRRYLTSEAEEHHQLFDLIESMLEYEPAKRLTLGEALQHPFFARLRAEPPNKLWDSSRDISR
Conditions: at 0.1 µM
Description: GSK_PKIS: CLK2 mean inhibition at 0.1 uM [Nanosyn]
Please go through the items and note down their inhibition.
Report the value in % with no unit label.

[Q] // query inhibition value for entry COc1cccc(-n2ncc3c(N/N=C/c4ccc(C)cc4)ncnc32)c1
[A] -0.41

[Q] // query inhibition value for entry COc1cc(Nc2nccc(-c3cnn4ncccc34)n2)cc(OC)c1
[A] 99.2

[Q] // query inhibition value for entry Oc1cccc(-c2nc(-c3ccccc3)[nH]c2-c2ccncc2)c1
[A] 1.81

[Q] // query inhibition value for entry Cc1ccc2c(-c3ccnc(Nc4cccc(C(F)(F)F)c4)n3)c(-c3ccccc3)nn2n1
[A] -0.15

[Q] // query inhibition value for entry NS(=O)(=O)c1cccc(Nc2cc(-c3ccc(F)cc3)n[nH]2)c1
[A] 1.65

[Q] // query inhibition value for entry CCOc1nccc2c1nc(-c1nonc1N)n2CC
[A] 1.77

[Q] // query inhibition value for entry c1ccc(Cc2nc3ccc(Nc4ncnc5ccccc45)cc3[nH]2)cc1
[A] 1.26

[Q] // query inhibition value for entry Cc1ccc(C(=O)NC2CC2)cc1-c1ccc2[nH]ncc2c1
[A] -1

[Q] // query inhibition value for entry Cc1ccc(NC(=O)CC2CC2)cc1-c1ccc(C(=O)NCC2CC2)cc1
[A] 0.47

[Q] // query inhibition value for entry CCn1c(-c2nonc2N)nc2c(C#CC(C)(C)O)nc(OCCNC)cc21
[A] 1.52

[Q] // query inhibition value for entry Nc1nccc(C#Cc2cncnc2Nc2ccc(OCc3cccc(F)c3)c(Cl)c2)n1
[A] 2.79

---

Please go through the items and note down their inhibition.
Molecular target: Serine/threonine-protein kinase PAK 5 (Homo sapiens) (UniProt Q9P286);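 also: values are mean percent inhibition of PAK5 from a kinase inhibitor set screen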
Sequence (Q9P286 whole entry, looked up): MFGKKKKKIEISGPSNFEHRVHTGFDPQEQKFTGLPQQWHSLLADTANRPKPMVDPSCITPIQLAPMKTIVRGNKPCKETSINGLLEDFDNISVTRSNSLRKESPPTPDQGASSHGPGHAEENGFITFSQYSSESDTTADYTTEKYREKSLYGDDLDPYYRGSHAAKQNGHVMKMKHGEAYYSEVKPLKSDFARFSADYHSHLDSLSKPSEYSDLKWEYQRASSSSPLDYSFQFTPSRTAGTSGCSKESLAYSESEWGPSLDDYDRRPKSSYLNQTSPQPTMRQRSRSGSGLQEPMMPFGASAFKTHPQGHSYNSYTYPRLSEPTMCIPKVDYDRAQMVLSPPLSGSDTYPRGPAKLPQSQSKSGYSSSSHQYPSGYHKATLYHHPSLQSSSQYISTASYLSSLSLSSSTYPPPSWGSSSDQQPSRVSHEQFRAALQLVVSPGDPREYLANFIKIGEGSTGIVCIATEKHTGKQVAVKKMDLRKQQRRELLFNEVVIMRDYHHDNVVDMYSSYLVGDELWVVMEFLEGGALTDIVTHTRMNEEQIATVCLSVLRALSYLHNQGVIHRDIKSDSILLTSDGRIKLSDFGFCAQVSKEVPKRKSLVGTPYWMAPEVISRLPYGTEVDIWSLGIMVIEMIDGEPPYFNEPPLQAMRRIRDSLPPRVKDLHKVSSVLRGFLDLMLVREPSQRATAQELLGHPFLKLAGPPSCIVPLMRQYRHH
Settings: at 0.1 µM
Report the value in % with no unit label.

[Q] // query inhibition value for entry NC(=O)c1sc(-n2cnc3ccccc32)cc1OCc1ccccc1Br
[A] 2.59

[Q] // query inhibition value for entry Cc1ccc2c(-c3ccnc(Nc4cccc(C(F)(F)F)c4)n3)c(-c3ccccc3)nn2n1
[A] -4.38

[Q] // query inhibition value for entry O=S(=O)(CCOCc1ccc(-c2ccc3ncnc(Nc4ccc(OCc5cccc(F)c5)c(Cl)c4)c3c2)o1)c1ccccc1
[A] 0.21

[Q] // query inhibition value for entry NS(=O)(=O)c1ccc(-c2cc3ccncc3cc2OCc2ccccc2)cc1
[A] 1.12

[Q] // query inhibition value for entry COc1ccc(-c2nn3ncccc3c2-c2ccnc(Nc3cccc(C(F)(F)F)c3)n2)cc1
[A] 1.8

[Q] // query inhibition value for entry O=C(Nc1ccc(Oc2ccc3[nH]c(NC(=O)c4ccco4)nc3c2)cc1)Nc1cc(C(F)(F)F)ccc1F
[A] 6.4

[Q] // query inhibition value for entry COc1cc2ncnc(Nc3ccc4c(cnn4Cc4ccccc4)c3)c2cc1OC
[A] 1.77

[Q] // query inhibition value for entry Cc1ccc(C(=O)NC2CC2)cc1-c1ccc2[nH]ncc2c1
[A] -4.55

[Q] // query inhibition value for entry COC(=O)c1ccc2c(c1)C(=Cc1cc(Br)c(O)c(Br)c1)C(=O)N2
[A] 7.06

---

Target: Dual specificity protein kinase TTK (Homo sapiens)
Sequence (whole entry): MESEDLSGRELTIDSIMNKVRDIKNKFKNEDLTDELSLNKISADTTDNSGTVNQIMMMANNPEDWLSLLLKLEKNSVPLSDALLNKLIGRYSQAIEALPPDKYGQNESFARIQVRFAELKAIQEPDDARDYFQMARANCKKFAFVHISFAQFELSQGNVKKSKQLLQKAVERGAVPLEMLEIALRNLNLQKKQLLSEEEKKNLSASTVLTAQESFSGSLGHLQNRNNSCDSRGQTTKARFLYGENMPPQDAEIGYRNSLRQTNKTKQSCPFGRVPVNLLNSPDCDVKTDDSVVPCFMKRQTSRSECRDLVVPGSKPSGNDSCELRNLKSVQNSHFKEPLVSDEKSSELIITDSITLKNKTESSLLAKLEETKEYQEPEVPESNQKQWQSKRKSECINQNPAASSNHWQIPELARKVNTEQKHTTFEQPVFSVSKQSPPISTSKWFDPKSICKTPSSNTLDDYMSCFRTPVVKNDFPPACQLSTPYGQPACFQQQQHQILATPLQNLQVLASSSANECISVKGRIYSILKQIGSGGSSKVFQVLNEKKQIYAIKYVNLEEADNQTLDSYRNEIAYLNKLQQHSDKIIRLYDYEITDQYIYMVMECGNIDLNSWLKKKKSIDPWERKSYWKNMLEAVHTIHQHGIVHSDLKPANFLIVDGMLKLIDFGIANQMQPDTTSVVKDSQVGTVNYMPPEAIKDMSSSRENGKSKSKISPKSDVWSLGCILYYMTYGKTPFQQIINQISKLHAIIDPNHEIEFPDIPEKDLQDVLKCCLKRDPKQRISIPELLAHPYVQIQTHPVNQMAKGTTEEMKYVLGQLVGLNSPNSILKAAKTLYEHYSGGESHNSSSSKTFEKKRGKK
Settings: at 0.1 µM
Description: GSK_PKIS: TTK mean inhibition at 0.1 uM [Nanosyn]
Please go through the items and note down their inhibition.
Report the value in % with no unit label.

[Q] // query inhibition value for entry Nc1nccc(-c2c(-c3ccc(F)cc3)ncn2CCCN2CCOCC2)n1
[A] 10.5

[Q] // query inhibition value for entry Cc1cc(-c2ccccn2)cc(C)c1/C=C/c1cncc(-c2nn[nH]n2)c1
[A] 11.3

[Q] // query inhibition value for entry CCCN1CCCC(c2ccc(Nc3nc(Nc4cc(F)ccc4C(N)=O)c4cc[nH]c4n3)c(OC)c2)C1 (stereo not given)
[A] 75.9

[Q] // query inhibition value for entry NS(=O)(=O)c1cccc(-c2cc3ccncc3cc2OCc2ccccc2)c1
[A] 7.53

[Q] // query inhibition value for entry C[C@@H](Oc1cc(-n2cnc3ccc(OC[C@@H](O)CO)cc32)sc1C(N)=O)c1ccccc1Cl
[A] 1.27

[Q] // query inhibition value for entry NC(=O)c1sc(-n2cnc3ccccc32)cc1OCc1ccccc1Br
[A] 10.6

[Q] // query inhibition value for entry CS(=O)(=O)CCNCc1nc(-c2ccc3ncnc(Nc4ccc(OCc5cccc(C(F)(F)F)c5)cc4)c3c2)cs1
[A] 3.6

[Q] // query inhibition value for entry NC(=O)c1cccc(Nc2nccc(Nc3cccc(F)c3)n2)c1
[A] 2.31

[Q] // query inhibition value for entry Cc1nc(-c2ccccc2)n2nc(NCCCN3CCOCC3)ncc12
[A] 6.18

[Q] // query inhibition value for entry Cc1cc(Cl)cc2c1NC(=O)C2=NNc1ccc(S(N)(=O)=O)cc1
[A] 4.88

Recorded values, source ChEMBL document CHEMBL1961873.
